tested on: Klebsiella pneumoniae; assay: Antibacterial activity against Klebsiella pneumoniae 15-5 assessed as inhibition of bacterial growth measured after 18 to 20 hrs by broth microdilution method; format: functional; conditions: time 18-20 hrs
readout-label: MIC (µg/mL)

- molecular-string: "CSCCSSCc1ccc(-c2ncc(C(=O)N[C@@H](CCN)C(=O)N(C)[C@@H]3C(=O)N[C@@H](C)C(=O)N[C@H](C(=O)NCC#N)Cc4ccc(OCCN)c(c4)-c4cc3ccc4OCCN)c(C)n2)cc1.O=C(O)C(F)(F)F.O=C(O)C(F)(F)F.O=C(O)C(F)(F)F.O=C(O)C(F)(F)F"
  tested-on: "Klebsiella pneumoniae"
  MIC (µg/mL): 0.25

1. Cc1nc(-c2ccc(CSSC(C)C)cc2)ncc1C(=O)N[C@@H](CCN)C(=O)N(C)[C@@H]1C(=O)N[C@@H](C)C(=O)N[C@H](C(=O)NCC#N)Cc2ccc(OCCN)c(c2)-c2cc1ccc2OCCN.O=C(O)C(F)(F)F.O=C(O)C(F)(F)F.O=C(O)C(F)(F)F.O=C(O)C(F)(F)F
2. Cc1nc(-c2ccc(C(C)(C)C)cc2)ncc1C(=O)N[C@@H](CCN)C(=O)N(C)[C@@H]1C(=O)N[C@@H](C)C(=O)N[C@H](NC(=O)NC#N)Cc2ccc(OCCN)c(c2)-c2cc1ccc2OCCN.O=C(O)C(F)(F)F.O=C(O)C(F)(F)F.O=C(O)C(F)(F)F.O=C(O)C(F)(F)F
Endpoint returns whichever of 1 and 2 has the numerically higher MIC. Identify your selection by its label.
2
